Tested on: S. cerevisiae AD1-9 (efflux-pump deficient), vegetative growth in YPD
Assay: growth sensitivity score (doubling time z-score vs DMSO controls); higher = slower growth, strongly negative scores also mark growth inhibition (complete suppression), active = hit call of the paper; in the data active = 2 or more and inactive = the rest
Where a name gives a salt, the structure may show the parent alone.
Outcomes: active, inactive

MOLECULE	LABEL CLASS
CC(C)(O)c1ccccc1CC[C@@H](SCC1(CC(=O)O)CC1)c1cccc(/C=C/c2ccc3ccc(Cl)cc3n2)c1 [Montelukast] (stock concentration (mM, diluted 1:100): 9.6)	inactive
CCCCCCNC(=O)n1cc(F)c(=O)[nH]c1=O [Carmofur] (stock concentration (mM, diluted 1:100): 10.3)	active
Cc1[nH]cnc1CN1CCc2c(c3ccccc3n2C)C1=O [Alosetron hydrochloride] (stock concentration (mM, diluted 1:100): 8.9)	inactive

FYI, the data here is from the supplement of paper PMC3414501.
